# study-target: UniProt P24666
# Sequence (P24666 whole entry): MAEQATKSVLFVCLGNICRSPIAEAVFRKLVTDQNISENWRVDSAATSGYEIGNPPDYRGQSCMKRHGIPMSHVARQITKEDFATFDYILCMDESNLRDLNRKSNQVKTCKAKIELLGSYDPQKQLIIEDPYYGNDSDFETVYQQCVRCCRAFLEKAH
# experiment-notes: PTP inhibition assay (pNPP)
# Assay type: biochemical
# recorded-conditions: pNPP at Km, pH 7.0, 25° C.
pIC50: −log10 of the molar value.
What pIC50 was measured for each of the following?

Report measured pIC50; entry is O=C(Nc1nc2ccccc2s1)C(c1ccc(Br)cc1)S(=O)(=O)O (stereo not shown) < 3.70

Report measured pIC50; entry is O=C(Nc1cccc(OCc2ccccc2)c1)C(=O)Nc1ccccc1NC(=O)C(c1ccccc1)S(=O)(=O)O (stereo not shown) < 4.30

Report measured pIC50; entry is CCCCc1ccc(NC(=O)C(=O)Nc2ccccc2NC(=O)C(c2ccccc2)S(=O)(=O)O)cc1 (stereo not shown) < 4.30

Report measured pIC50; entry is O=C(NCCNC(=O)C(c1ccccc1)S(=O)(=O)O)c1cccc(C(=O)c2ccccc2)c1 (stereo not shown) < 3.70
